test system: Candida parapsilosis; experiment: In vitro antifungal activity against Candida parapsilosis; format: functional; conditions: Lodderomyces parapsilosis
Below, each of the molecules is paired with its reported MIC value.
A number alone suffices; assume mg/L.

Return MIC measured with Candida parapsilosis given this molecule: CC(C)CC1(C)CC(=O)c2ccc(O)cc2O1 (stereo unspecified)
320

Return MIC measured with Candida parapsilosis given this molecule: CCCCCC1(C)CC(=O)c2ccc(O)cc2O1 (stereo unspecified)
160

Return MIC measured with Candida parapsilosis given this molecule: CC(C)=CCCC1(C)C/C(=N/O)c2ccc(O)cc2O1 (stereo unspecified)
40

Return MIC measured with Candida parapsilosis given this molecule: CCCCCC1(C)C/C(=N/O)c2ccc(O)cc2O1 (stereo unspecified)
40

Return MIC measured with Candida parapsilosis given this molecule: CCCCCC1(C)CC(O)c2ccc(O)cc2O1 (stereo unspecified)
40

Return MIC measured with Candida parapsilosis given this molecule: CCCCCC1(C)CC(O)c2ccc(OC)cc2O1 (stereo unspecified)
160

Return MIC measured with Candida parapsilosis given this molecule: COc1ccc2c(c1)OC(C)(CCC=C(C)C)CC2O (stereo unspecified)
160

Return MIC measured with Candida parapsilosis given this molecule: CC(C)=CCCC1(C)CC(=O)c2ccc(O)cc2O1 (stereo unspecified)
80

Return MIC measured with Candida parapsilosis given this molecule: CCCCCCCC1(C)C/C(=N/O)c2ccc(O)cc2O1 (stereo unspecified)
20

Return MIC measured with Candida parapsilosis given this molecule: CCCCCCCC1(C)CC(=O)c2ccc(O)cc2O1 (stereo unspecified)
160

Return MIC measured with Candida parapsilosis given this molecule: CCCCCCCC1(C)CC(O)c2ccc(O)cc2O1 (stereo unspecified)
20

Return MIC measured with Candida parapsilosis given this molecule: CCCCCCCC1(C)CC(O)c2ccc(OC)cc2O1 (stereo unspecified)
160

Return MIC measured with Candida parapsilosis given this molecule: `OC(Cn1cncn1)(Cn1cncn1)c1ccc(F)cc1F`
8

Return MIC measured with Candida parapsilosis given this molecule: CCCCCCCC1(C)CC(=O)c2ccc(OC)cc2O1 (stereo unspecified)
320

Return MIC measured with Candida parapsilosis given this molecule: CC(C)=CCCC1(C)CC(O)c2ccc(O)cc2O1 (stereo unspecified)
80
